System: Wolbachia pipientis
Experiment: Anti-Wolbachia Cell-Based Screen
Assay type: functional
Parameters: scale not given: in the data most compounds retested in dose-response had high values
Conditions: 5 µM
In all, about 48,000 compounds went through this assay and about 13,000 (27%) showed an effect of 50% or more. This is one part of the list.
Let's look at some compounds and their measured Percent Effect.
Response body: numeric value in %, unit text excluded.

>>> df
                              compound  units_text  endpoint_result
0  COc1ccc(C)cc1-n1c(COC(C)C)n[nH]c1=O           %          0.04984
1  COc1c(C)cnc(CNC(=O)CCOCc2ccccc2)c1C           %            7.332
2      CCN(C)Cc1cnc(S(=O)(=O)CC)n1CCOC           %            2.274

Consider now this further compound.
input: Please report the recorded Percent Effect for CC1(C)CNC(=O)c2nc(CCCN3CCCC3)[nH]c2C1 .
output: -5.112
